B1: HDV Ribozyme (parent)
chain: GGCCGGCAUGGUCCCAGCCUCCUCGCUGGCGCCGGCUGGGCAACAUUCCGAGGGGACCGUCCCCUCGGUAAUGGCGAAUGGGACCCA

- Variants of: B1
- method summary: self-cleavage, relative activity (ratio to wild type); higher = more cleavage; co-transcriptional
Think of 0.2 as a floor: if self-cleavage stands on it or above, it is 1 (yes); beneath it, 0 (no).

{"columns": ["mutant designation", "answer label"],
 "data": [
  ["U12C G73C", "0 (no)"],
  ["C62G A77U", "1 (yes)"],
  ["G10C G29U", "0 (no)"],
  ["G2U C44A", "0 (no)"],
  ["G6A C19U", "0 (no)"],
  ["C26U G38A", "0 (no)"],
  ["C58G U60G", "1 (yes)"],
  ["G55A C64U", "1 (yes)"],
  ["C26G C49A", "1 (yes)"],
  ["C4G U47G", "0 (no)"],
  ["U37A U65G", "1 (yes)"],
  ["C61G C84U", "1 (yes)"],
  ["G2A A78G", "0 (no)"],
  ["C64G G73U", "0 (no)"],
  ["G1C C4A", "0 (no)"],
  ["U20C U79C", "0 (no)"],
  ["U47G C85A", "1 (yes)"],
  ["C30G A71G", "0 (no)"],
  ["C58G A77U", "1 (yes)"],
  ["C18G C26U", "1 (yes)"],
  ["C13G C41U", "0 (no)"],
  ["C48G C58U", "1 (yes)"],
  ["C85G A87U", "1 (yes)"],
  ["C44U A45U", "1 (yes)"]
]}
